# Tested on: SlSWIBb-R6A (Solanum lycopersicum)
# measurementNotes: MST
# conditionContext: MST: 50 mM Tris-HCl pH 8.0, 150 mM NaCl, 0.05% Tween-20, 25 C
measuredProperty: Kd (nM)
Give a bare numeral; the unit nM is implied.

Request: // returns reported Kd for input GAATATATGAACATATTAAAAGTGACATTATAAGAAATGATAAAATTCAAAATTAAGGTG (double strand) [60bp InDel, Cy5]
Response: 40

* * *

# System: SlSWIBb (Solanum lycopersicum)
# measurementNotes: MST
# conditionContext: MST: 50 mM Tris-HCl pH 8.0, 150 mM NaCl, 0.05% Tween-20, 25 C
measuredProperty: pKd
The read-out pKd is expressed as -log10 of concentration in moles per litre.

Request: // returns reported pKd for input GAATATATGAACATATTAAAAGTGACATTATAAGAAATGATAAAATTCAAAATTAAGGTG (double strand) [60bp InDel, Cy5]
Response: 7.46
